# measurementNotes: in vivo
# settings: rat, po, 5 mg/kg
measuredEndpoint: half-life (h)

>>> numericvalue("O=c1cc(-c2ccnc(NC3CCOCC3)n2)ccn1[C@H](CO)c1ccc(Cl)c(F)c1")
1.16

###

# measurementNotes: in vivo
# settings: nude, mouse, po, 5 mg/kg
measuredEndpoint: half-life (h)

>>> numericvalue("O=c1cc(-c2ccnc(NC3CCOCC3)n2)ccn1[C@H](CO)c1ccc(Cl)c(F)c1")
3.52

###

# measurementNotes: in vivo
# settings: nude, mouse, po, 5 mg/kg
measuredEndpoint: Cmax

>>> result("O=c1cc(-c2ccnc(NC3CCOCC3)n2)ccn1[C@H](CO)c1ccc(Cl)c(F)c1")
"3.12 µM"
